Test System: T1, human MCSP(D3 domain)-avi-his (human, UniProt Q6UVK1 1587-2221, limits assumed)
T1 construct: domain: D3 domain; also called hu-MCSP(D3 domain)-avi-his
T1 sequence (looked up): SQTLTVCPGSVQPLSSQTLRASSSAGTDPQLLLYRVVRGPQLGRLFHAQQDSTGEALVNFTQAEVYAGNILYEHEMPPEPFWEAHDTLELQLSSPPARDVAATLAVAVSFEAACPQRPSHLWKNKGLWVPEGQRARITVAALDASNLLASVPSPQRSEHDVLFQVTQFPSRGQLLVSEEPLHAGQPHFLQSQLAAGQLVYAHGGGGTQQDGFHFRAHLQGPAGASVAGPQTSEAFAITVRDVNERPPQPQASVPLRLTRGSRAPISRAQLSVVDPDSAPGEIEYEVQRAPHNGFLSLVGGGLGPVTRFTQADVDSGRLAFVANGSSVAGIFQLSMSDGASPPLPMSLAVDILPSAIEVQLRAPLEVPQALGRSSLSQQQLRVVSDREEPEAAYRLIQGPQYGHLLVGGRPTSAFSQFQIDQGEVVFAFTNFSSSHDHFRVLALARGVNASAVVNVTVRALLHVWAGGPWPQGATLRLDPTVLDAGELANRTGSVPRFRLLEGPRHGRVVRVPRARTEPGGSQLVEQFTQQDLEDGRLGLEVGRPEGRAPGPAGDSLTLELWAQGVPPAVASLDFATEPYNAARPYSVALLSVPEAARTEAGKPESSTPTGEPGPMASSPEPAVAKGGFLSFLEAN
Assay Explanation: ratio of ProteOn IgG KD against parental M4-3/ML2 IgG
Property Name: fold increase over parent (IgG KD, comparative binding affinity) (fold)
Write the value in fold as a bare number.

Binder	Reported Value
M4-3(D6)/ML2 IgG (antibody, V domains shown, Human IgG1 format) VH: QVQLQESGPGLVKPSQTLSLTCTVSGGSITSGYYWNWIRQHPGKGLEWIGYITFDGKNNYNPSLKSRVTISRDTSKNQFSLKLSSVTAADTAVYYCADFDYWGQGTLVTVSS VL: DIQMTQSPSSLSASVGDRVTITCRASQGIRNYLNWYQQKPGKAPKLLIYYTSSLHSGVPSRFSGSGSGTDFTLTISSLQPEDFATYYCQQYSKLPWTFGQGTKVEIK	5
M4-3(C1)/ML2 IgG (antibody, V domains shown, Human IgG1 format) VH: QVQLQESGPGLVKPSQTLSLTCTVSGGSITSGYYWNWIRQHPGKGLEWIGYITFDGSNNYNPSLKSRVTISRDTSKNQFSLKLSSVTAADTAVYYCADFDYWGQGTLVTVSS VL: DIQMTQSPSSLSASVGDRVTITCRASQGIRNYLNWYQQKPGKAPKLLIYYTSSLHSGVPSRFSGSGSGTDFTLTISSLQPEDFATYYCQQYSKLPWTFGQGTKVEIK	2.2
M4-3(C1)/ML2(G3) IgG (antibody, V domains shown, Human IgG1; also called MCSP M4-3(C1)ML2(G3)) VH: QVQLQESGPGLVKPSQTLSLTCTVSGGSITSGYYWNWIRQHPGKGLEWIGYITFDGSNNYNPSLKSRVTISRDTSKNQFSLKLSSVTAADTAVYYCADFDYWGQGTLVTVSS VL: DIQMTQSPSSLSASVGDRVTITCRASQGIRNYLNWYQQKPGKAPKLLIYYTSSLHSGVPSRFSGSGSGTDYTLTISSLQPEDFATYYCQQYSALPWTFGQGTKVEIKR	28.6

Query block: What value of fold increase over parent (IgG KD, comparative binding affinity) has been recorded for this entry: M4-3(B8)/ML2 IgG (antibody, V domains shown, Human IgG1 format) VH: QVQLQESGPGLVKPSQTLSLTCTVSGGSITSGYYWNWIRQHPGKGLEWIGYITFDGRNNYNPSLKSRVTISRDTSKNQFSLKLSSVTAADTAVYYCADFDYWGQGTLVTVSS VL: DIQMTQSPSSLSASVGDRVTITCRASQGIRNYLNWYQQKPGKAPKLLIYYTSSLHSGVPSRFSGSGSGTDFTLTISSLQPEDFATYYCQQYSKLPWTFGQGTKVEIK
Result block: 2.2

Query block: Find the recorded fold increase over parent (IgG KD, comparative binding affinity) belonging to M4-3(B7)/ML2 IgG (antibody, V domains shown, Human IgG1 format) VH: QVQLQESGPGLVKPSQTLSLTCTVSGGSITSGYYWNWIRQHPGKGLEWIGYITFDGINNYNPSLKSRVTISRDTSKNQFSLKLSSVTAADTAVYYCADFDYWGQGTLVTVSS VL: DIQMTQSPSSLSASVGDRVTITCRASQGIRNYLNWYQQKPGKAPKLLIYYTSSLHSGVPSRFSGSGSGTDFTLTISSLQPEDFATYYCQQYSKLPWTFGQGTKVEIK and report it.
Result block: 4
